System: RPMI-8226
Assay: NCI tumour cell line growth inhibition, 48 h
The source made the active and inactive calls. Rule as the data show it: active = GI50 up to about 1.1 µM and inactive = higher.
One label from this list, please: active, inactive

CN(C)C[C@H]1CC[C@@H](CN(C)C)C1=O
active

[Q] Per the assay record, what outcome was assigned to COc1cc2c3c(c1OC)C1(C=CC(=O)C=C1)CC3N(C(=O)OC(C)(C)C(Cl)(Cl)Cl)CC2 (configuration not stated) ?
[A] inactive

[Q] Could you please tell me the result logged for COc1ccc(-c2cc(-c3ccc(C)cc3)n(C3OC(COC(C)=O)C(OC(C)=O)C(OC(C)=O)C3OC(C)=O)c(=S)c2C#N)cc1 (configuration not stated) in this assay?
[A] inactive

[Q] What call does the record list for COc1ccc(O[C@H](CO)C[C@@H]2COC(C)(C)O2)cc1 ?
[A] inactive

[Q] I would be grateful if you could indicate the recorded call for CC[C@@]1(O)C(=O)OCc2c1cc1n(c2=O)Cc2c-1nc1ccccc1c2/C=N/c1ccccc1N[C@@H]1c2cc3c(cc2[C@@H](c2cc(OC)c(O)c(OC)c2)[C@H]2C(=O)OC[C@@H]21)OCO3 .
[A] active
